Source listed as PubChem BioAssay (NCI).

- Tested on: MDA-MB-231 breast
- ASSAY_DETAILS: NCI-60 one-dose screen, 48 h
- STATED_CONDITIONS: 10 µM unless noted
About 83,000 compounds went through this panel and 20% of them were active in at least one assay; those are over-represented in the sample as a whole. The source made the active and inactive calls. The calls were made as follows: active = growth percent below 10; inactive = the rest.
Thanks in advance; please answer with one of these: active, inactive

ENTRY_SMILES	CAT
C[N+]1=C(/C=C\C=C\c2ccccc2)C(C)(C)c2ccccc21	active
COc1ccc(Cl)cc1Nc1nc(C(F)(F)F)ccc1C(=O)N/N=C/c1ccc(N(C)C)cc1	inactive
[Cu+].[NH-][C@H]1C[N-]C(=O)[C@H]([C@H]2CCN=C(N)N2)[N-]C(=O)/C(=C\NC(N)=O)[N-]C(=O)[C@H](CNC(=O)C[C@@H](N)CCCN)[N-]C(=O)[C@H](CO)[N-]C1=O	inactive
COc1cc(/C=N/NC(=O)CCN2c3ccccc3Sc3ccccc32)cc(OC)c1OC	inactive
C=CCOc1ccc(/C=C2\SC(=S)N(CCc3ccc(O)cc3)C2=O)cc1	inactive

As a next step, examine the compound that follows.
# input Could you please tell me the result logged for COc1ccc(Nc2ncnc3ccc(-c4cncc(NS(C)(=O)=O)c4)cc23)cc1Cl in this assay?
# output inactive

---

Attribute: growth
- Tested on: SF-268 CNS
- ASSAY_DETAILS: NCI-60 one-dose screen, 48 h (100 = growth as untreated, 0 = no growth, -100 = all killed)
- STATED_CONDITIONS: 10 µM unless noted
- Procedure: Cells are grown in 96 well plates and exposed to the test compound for 48 hours. Compounds are tested at a single concentration, which is 10^-5 M for most compounds. The reported endpoint is percent growth (GI% or GIPRCNT), where numbers from 0 - 100% represent growth inhibition, and numbers from -100% - 0 represent cell death. For example, a value of 40 represents 60% growth inhibition. A value of 0 means no net growth occurred over the course of the experiment. […]
The panel holds about 83,000 compounds, 20% with a hit somewhere; the sample as a whole holds those more often.
Give just the number in %; leave the unit off.

> print(dat)
                                   compound  readout.unit  measured.value
1  Cc1ccc(-c2nc3nc(-c4ccccc4)nc(N4CCN(S(=O)(=O)c5ccccc5)CC4)c3o2)cc1             %            66.8

# input Lab note: record growth of CC(=NCc1ccccc1)c1ccc(O)cc1O tested on SF-268 CNS.
# output 101

# input Lab note: record growth of C/C=C(\C)C(=O)N[C@H]1CC[C@]2(C)C3CC[C@@]4(C)C(CC[C@@H]4C(C)N(C)C)C3CCC2[C@H]1OC(C)=O (stereo not given in full) tested on SF-268 CNS.
# output -84.6

# input Lab note: record growth of CC1(C)C(N)=Nc2cc(OCCCN3Cc4ccc(OCCc5cn(CC(=O)N6CCC(CCN7CCCC7)CC6)nn5)cc4C3)c(OCC3CC3)cc21 tested on SF-268 CNS.
# output 86

# input Lab note: record growth of O=C(/C=C/C12c3ccccc3C(c3ccccc31)C1C(=O)NC(=O)C12)c1ccncc1 (stereo not given) tested on SF-268 CNS.
# output 10.2

---

Attribute: growth
- System: U251 CNS
- ASSAY_DETAILS: NCI-60 one-dose screen, 48 h (100 = growth as untreated, 0 = no growth, -100 = all killed)
- STATED_CONDITIONS: 10 µM unless noted
- Description: Growth inhibition of the U251 human tumor cell line is measured as a screen for anti-cancer activity. Cells are grown in 96 well plates and exposed to the test compound for 48 hours. Compounds are tested at a single concentration, which is 10^-5 M for most compounds. The reported endpoint is percent growth (GI% or GIPRCNT), where numbers from 0 - 100% represent growth inhibition, and numbers from -100% - 0 represent cell death. For example, a value of 40 represents 60% growth inhibition. […]
This is part of a sample that, as a whole, favours compounds with a hit. Of some 83,000 tested, about 20% had one in any assay.
Give just the number in %; leave the unit off.

> print(dat)
                                   compound  measured.value
1  O=S(=O)(Nc1cc(Sc2cccc3cccnc23)c(O)c2ccccc12)c1ccc(F)cc1            5.35
2  CCCN1C(=O)/C(=c2\sc3n(c2=O)NC2C(N=3)N(CC)C(=O)N2CC)c2ccccc21 (stereo not drawn)            29.9

# next compound below
# input Lab note: record growth of CON1CCC[C@]2(C)[C@H]3CC[C@@H]4[C@H]5[C@@H](O)C(C)(C)CC[C@]5(CO)CC[C@@]4(C)[C@]3(C)CC[C@H]2C1(C)C tested on U251 CNS.
# output 90

---

Attribute: growth
- Tested on: PC-3 prostate
- ASSAY_DETAILS: NCI-60 one-dose screen, 48 h (100 = growth as untreated, 0 = no growth, -100 = all killed)
- STATED_CONDITIONS: 10 µM unless noted
About 83,000 compounds went through this panel and 20% of them were active in at least one assay; those are over-represented in the sample as a whole. Activity calls are given as the source filed them. How the source made its calls: active means growth percent below 10; inactive means the rest.

> print(dat)
                                   compound    measured.value
1  O=C(CCCCCCCCC(=O)N/N=C\c1ccccc1O)N/N=C\c1ccccc1O  31.5% (inactive)

# input Look up and state reported growth for CC(Sc1ccccc1)C(=O)O (stereo not drawn)
# output 103% (inactive)

# input Look up and state reported growth for CCOC(=O)c1cc2c(n1Cc1cc(OC)cc(OC)c1Br)-c1nc(NC(C)=O)sc1CCC2
# output 22.1% (inactive)

---

Attribute: growth
- Tested on: NCI-H522 lung
- ASSAY_DETAILS: NCI-60 one-dose screen, 48 h (100 = growth as untreated, 0 = no growth, -100 = all killed)
- STATED_CONDITIONS: 10 µM unless noted
About 83,000 compounds went through this panel and 20% of them were active in at least one assay; those are over-represented in the sample as a whole.
Give just the number in %; leave the unit off.

> print(dat)
                                   compound  measured.value
1  CCOC(=O)C1=C(C)NC(=O)NC1c1c(Cl)n(-c2ccccc2)c2ccccc12 (stereo unspecified)              66
2  O=C1/C(=C/c2cn(-c3ccccc3)nc2-c2ccccc2)SC(=S)N1c1ccccc1            91.3
3  COc1ccc(C2Nc3nc(SC)nc(N)c3N=C3c4ccccc4CCC32)cc1 (stereo unspecified)            90.9
4  Cc1c(C(=O)OCCCCOC(=O)c2c(C)n(C)c3scc[n+]23)[n+]2ccsc2n1C            99.6
5                 O=C(NNc1ccccc1)c1ncc[nH]1            50.8

# input Look up and state reported growth for CC(=O)c1nn(-c2ccccc2)/c(=N/N=Cc2cn(-c3ccccc3)nc2-c2cc3ccccc3oc2=O)s1
# output 95.6

---

- Tested on: K-562 leukemia
- ASSAY_DETAILS: NCI-60 one-dose screen, 48 h
- STATED_CONDITIONS: 10 µM unless noted
The panel holds about 83,000 compounds, 20% with a hit somewhere; the sample as a whole holds those more often. Calls of active or inactive are those of the source. How the source made its calls: active means growth percent below 10; inactive means the rest.
Thanks in advance; please answer with one of these: label 1 (active), label 0 (inactive)

Reference set, count: 5
COMPOUND	EXPERIMENTAL_SYSTEM	CAT
Nc1[nH]nc(Nc2ccccc2)c1-c1nc2ccccc2s1	K-562 leukemia	label 1
COc1cc(/C=C2\CCC/C(=C\c3cc(CN4CCCC4)c(O)c(OC)c3)C2=O)cc(CN2CCCC2)c1O	K-562 leukemia	label 0
O=C1C(N2CCOCC2)=C(I)C(=O)c2ncccc21	K-562 leukemia	label 1
Cc1ccc(S(=O)(=O)OC[C@@]2(C)CC[C@]3(C)CC[C@]4(C)C(=CC[C@@H]5[C@@]6(C)CCCNC(C)(C)[C@@H]6CC[C@]54C)[C@@H]3C2)cc1	K-562 leukemia	label 1
CCN1C(=O)N(c2ccccc2)C2NC(=S)N(/N=C/C=C/c3ccccc3)C21 (stereo not given)	K-562 leukemia	label 1

# input Could you please tell me the result logged for CN1CCN(Cc2ccc(NC(=O)c3nc4ccc5[nH]ncc5c4c4c3CCCC4)cc2C(F)(F)F)CC1 in this assay?
# output label 1

# input Could you please tell me the result logged for C[C@@H]1CC[C@@H]2[C@@H]1[C@H](OC(=O)/C=C/c1ccccc1)[C@]1(c3ccccc3)C[C@@H](NC(=O)CO)[C@@]2(C)O1 in this assay?
# output label 0

# input Could you please tell me the result logged for CCCCCCCCCCCCCCCC(=O)O[C@@H]1[C@@H](O)[C@@H](O)C([C@H](NC(=O)[C@@H]2C[C@@H](CCC)CN2C)[C@H](C)Cl)O[C@@H]1SC (stereo not given in full) in this assay?
# output label 0

# input Could you please tell me the result logged for O=C1/C(=C/c2cn(-c3ccccc3)nc2-c2ccccc2)SC(=S)N1c1ccc(Cl)cc1 in this assay?
# output label 0

# input Could you please tell me the result logged for Cc1nc2sc(C(=O)Nc3cccc4ncccc34)c(N)c2cc1C(C)O (stereo not given) in this assay?
# output label 0
